Cited source: ChEMBL document CHEMBL1201862

Tested on: A498
Assay: NCI tumour cell line growth inhibition, 48 h
Calls of active or inactive are those of the source. Cut-off read from the data, not from the text of the source: active = GI50 up to about 1.1 µM and inactive = higher.
Respond using exactly one of the listed classes: active, inactive

Illustrative cases are given below, each with its answer.
CC1=NN(C(=O)c2ccncc2)C(=O)C1/N=N/c1ccc2ccccc2c1 (stereo not given) = inactive
CC(C)(O)CO/N=C1\C(=C2\C(=O)Nc3ccccc32)Nc2ccccc21 = active
CC(=O)NC1C(OC(C)C(=O)NC(C(=O)NC(CCC(=O)NCCCNC2c3ccccc3Nc3cccc([N+](=O)[O-])c32)C(N)=O)C(C)C)C(O)C(CO)OC1(C)OCc1ccccc1 (stereo not given) = inactive
O=C1C(N2CCCC2)=CC(=O)c2c(O)c(N3CCCC3)c(Cl)c(O)c21 = inactive
O=C(Cc1ccccc1)NN1C(=O)C(Cl)C1c1cccc([N+](=O)[O-])c1 (stereo not given) = inactive
COC(=O)C(NC(=O)CSc1nnc(COc2ccc(Cl)cc2)n1-c1ccccc1)C(C)C (stereo not given) = inactive

Query: recorded result category for O=C(NC(Cc1c[nH]c2ccccc12)C(=O)O)/C(=C/c1ccccc1)NC(=O)c1ccccc1 (stereo not given) in this test
inactive

State the result this test recorded for O=C(O)c1cc2ccccc2c(O)c1O .
inactive

Any idea what this test logged for O=C(NC/C(Cl)=C/Cl)Nc1c2ccccc2nc2ccccc12 ?
inactive

What is the recorded call for this compound in the test? Cn1cnc([N+](=O)[O-])c1SC1=NCCS1
inactive
